Assay: Annexin V-FITC/PI apoptosis detection by flow cytometry
Type: cell-based, human
Conditions: human, HeLa cells, 1 μM, read-out: viable cells (Q3, annexin V- PI-)
Quantity Name: viability at 24 h, 1 µM (%)
Response body: numeric value in %, unit text excluded.

Prompt line: Using the record for COC(=O)c1ccc2[nH]c(-c3cc(F)ccc3O)nc2c1 [MBIC] , report its viability at 24 h, 1 µM.
Response line: 17.4

----------
Tested on: HepG-2 cells
Assay: MTT cytotoxicity assay, HepG-2
Format: cell-based, human
Settings: IC50 WRL-68 / IC50 HepG-2, 48 hours
Excerpt: The human cervical cancer cell-line, HeLa (CCL-2.2; ATCC, Manassas, VA), HCT-116 (CCL-247; ATCC, Manassas, VA), A549 (CCL-185; ATCC, Manassas, VA), HepG-2 (HB-8065; ATCC, Manassas, VA) and WRL-68 (CL-48; ATCC, Manassas, VA), were obtained from American Type Culture Collection (ATCC). […] Cytotoxicity of MBIC was estimated by MTT assay. […] The colorimetric assay was quantified at 570 nm wavelength using Chameleon V microplate reader (Hidex, Turku, Finland). […]
Binary call on SI (Selectivity Index): Condition met from 2 upward, Condition not met beneath that.

Take a look at these entries with their results.
[[record]]
compound = "COC(=O)Nc1nc2ccc(C(=O)c3cccs3)cc2[nH]1"
assigned_class = "Condition not met"

[[record]]
compound = "N.N.[Cl][Pt][Cl] [Cisplatin]"
assigned_class = "Condition not met"

[[record]]
compound = "COC(=O)c1ccc2[nH]c(-c3cc(F)ccc3O)nc2c1"
assigned_class = "Condition met"

[[record]]
compound = "CC(=O)O[C@H]1C(=O)[C@@]2(C)[C@H]([C@H](OC(=O)c3ccccc3)[C@]3(O)C[C@H](OC(=O)[C@H](O)[C@@H](NC(=O)c4ccccc4)c4ccccc4)C(C)=C1C3(C)C)[C@]1(OC(C)=O)CO[C@@H]1C[C@@H]2O"
assigned_class = "Condition met"


--- query ---
Prompt line: Hello, I need to know if COc1cccc2c1C(=O)c1c(O)c3c(c(O)c1C2=O)C[C@@](O)(C(=O)CO)C[C@@H]3O[C@H]1C[C@H](N)[C@H](O)[C@H](C)O1 has measured SI (Selectivity Index) not below 2. Thanks!
Response line: Condition not met

Just for reference, paper PMC4815073 is where these values come from.
